# System: Rattus norvegicus
# Test description: Maximal change in mean arterial blood pressure comparing MAP immediately prior to and up to 240 min after oral dose in rat
# Type: functional
Please note: true (1) applies when Change MAP is 40% or greater, and false (0) applies otherwise.

See these solved cases before continuing.
CC(=O)c1cc2c(s1)[C@@H](NC(=O)c1ccc(F)cc1F)[C@H](O)C(C)(C)O2 ... true (1)
CC(=O)c1cc2c(s1)[C@@H](NC(=O)c1ccccc1F)[C@H](O)C(C)(C)O2 ... true (1)
CC(=O)c1cc2c(s1)[C@@H](NC(=O)c1cccnc1)[C@H](O)C(C)(C)O2 ... false (0)

Dear colleague, could you confirm whether CC(=O)c1cc2c(s1)[C@@H](NC(=O)c1ccc(Cl)cc1)[C@H](O)C(C)(C)O2 has Change MAP at or above 40%?
true (1)

Decide: is the reported value of Change MAP for CC(=O)c1cc2c(s1)[C@@H](NC(=O)c1ccco1)[C@H](O)C(C)(C)O2 equal to or greater than 40%?
false (0)

Entry CC(=O)c1cc2c(s1)[C@@H](NC(=O)c1ccc(C)cc1)[C@H](O)C(C)(C)O2 : is its Change MAP no less than 40%?
false (0)

Change MAP >= 40% for CC(=O)c1cc2c(s1)[C@@H](NC(=O)c1ccccc1)[C@H](O)C(C)(C)O2 ?
true (1)
